method summary: NCI Yeast Anticancer Drug Screen. Data for the sgs1 mgt1 strain (AID 161);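 further: 0% = growth of cultures given vehicle only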
cond: S. cerevisiae sgs1 mgt1 strain, at 50.0 µM, active compounds read high
About 79,000 compounds went through this panel and 15% of them were active in at least one assay; those are over-represented in the sample as a whole. Where a SMILES comes first, the peptide text is derived from it. The star is where a group is joined. Cbz = O=C(OCc1ccccc1)*; Boc = CC(C)(C)OC(=O)*; OSu = O=C1CCC(=O)N1O*; Bn = c1ccc(C*)cc1
assay endpoint: growth inhibition (%)

>>> measured("CCCCNC(=O)OCCN(C)CCOC(=O)NCCCC")
-17.2
>>> measured("NC(=O)Cc1c[nH]c2ccc(Br)cc12")
-8.4
>>> measured("CCCCCCCCCCCCCCCCSC1=C(Cl)C(=O)C(OC)=C(OC)C1=O")
21.1
>>> measured("CC(=O)NC(CSCN(C)c1nc(N(C)C)nc(N(C)C)n1)C(=O)O (stereo not given)")
2.95
>>> measured("O=C(CC(c1ccccc1)C1CCCC1=O)c1ccccc1 (stereo not given)")
17.6
>>> measured("Cc1cc(N=C2C=C(Nc3cc(C)on3)C(=O)c3ccccc32)no1")
-21.4
>>> measured("O=C(N/N=C\\c1ccc(Cl)c(Cl)c1)c1ccncc1")
-3.05
>>> measured("NC(=O)C12OC1(Cl)CCCC2(Cl)Cl (stereo not given)")
8.5
>>> measured("ClCCOCc1ccc(Cl)c(Cl)c1")
6.15
>>> measured("CC(C)(C)OC(=O)NC(Cc1ccc(OCc2ccccc2)cc1)C(=O)NC(CCCCNC(=O)OCc1ccccc1)C(=O)NC(CCCCNC(=O)OCc1ccccc1)C(=O)ON1C(=O)CCC1=O (stereo not given) (Boc-Tyr(Bn)-Lys(Cbz)-Lys(Cbz)-OSu; configuration not given here)")
6.6
